Tested on: RPS6KA5(Kin.Dom.2-C-terminal);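 also: KINOMEscan kinase panel screen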
Conditions: concentration: 1 μM,replicates: in singlicate; n = 1
ENDPOINT NAME: %Inh (%)

In [3]: df
Out[3]:
                                    compound  result_number
 0  CCOC(=O)N1CCC(n2cnc(-c3ccc(F)cc3)c2-c2ccnc(N)n2)CC1 [SB-219952]              0
 1  Cn1ccc2ncnc(Oc3ccc(NC(=O)Nc4ccnc(C(F)(F)F)c4)c(Cl)c3)c21              7
 2  CN1CCN(CCCNc2nccc(-c3c(-c4ccc(F)cc4)nn4cc(C(N)=O)ccc34)n2)CC1 [GW622475]             14
 3    O=C(Nc1ccccc1)c1cccc(Oc2ccc3nccn3n2)c1             16
 4  Cc1ccc2c(-c3ccnc(Nc4ccc(C(F)(F)F)cc4)n3)cnn2n1 [GW819776]              0
 5  Cl.c1ccc(Oc2ccc(Nc3ccnc4cc(-c5ccc(CN6CCNCC6)o5)ccc34)cc2)nc1 [GW567142]             14
 6  CCn1c(-c2nonc2N)nc2cncc(CNC3CCNCC3)c21.Cl [SB-747651]              0
 7  Cc1cccc2c(-c3ccncc3)c(-c3ccc(F)cc3)nn12.Cl [GW461487]              6
 8  NC(=O)Nc1sc(-c2ccc(F)cc2)cc1C(N)=O [GW789449]              0
 9  CC(C)c1nc(-c2cccc(NS(=O)(=O)c3ccccc3)c2)c(-c2ccnc(Nc3ccc4c(c3)CN(C)CC4)n2)s1 [GSK1649598]              0
10  O=C(Nc1n[nH]c2cc(-c3ccco3)ccc12)C1CC1 [SB-737447]             23
11  COC(=O)c1cccc(NC(=O)NC2CCN(c3ccnc(NCc4ccc(F)cc4)n3)CC2)c1 [GSK1379860]              0
12  O=C(Nc1ccc(Oc2ccc3nc(NC(=O)C4CC4)cn3n2)c(F)c1)c1cccn(-c2ccccc2)c1=O              9
13  Cl.Cl.NC[C@H](CC1CCCCC1)NC(=O)c1ccc(-c2ccnc3[nH]ccc23)s1 [GSK1581428]             67
14  CS(=O)(=O)c1cccc(CNc2nc(Nc3ccc4c(c3)[C@@H]3C[C@@H]4CNC3=O)ncc2C(F)(F)F)c1             46
15  O=c1[nH]cc(-c2ccc(O)cc2)c2sc(-c3ccncc3)cc12 [GSK1033723]             21
16  CN(c1cccc(CNc2nc(Nc3ccc4c(c3)CC(=O)N4)ncc2C(F)(F)F)c1)S(C)(=O)=O             20
17  CN1CCN(CCNc2nc3cc(Oc4ccc(NC(=O)Nc5cc(C(F)(F)F)ccc5F)cc4)ccc3[nH]2)CC1.Cl.Cl [GW768504]              1
18  Cc1ccc(Nc2ccnc(Nc3ccc4c(c3)CS(=O)(=O)C4)n2)cc1O.Cl [GW579362]             18
19  Cn1ccc2ncnc(Oc3ccc(NC(=O)Nc4cnn(C(C)(C)C)c4)c(Cl)c3)c21              0
20  Cc1cccc(-c2nc(Nc3ccncc3)c3sccc3n2)n1 [GW869641]              0
21  COc1cc2c(Nc3ccc(NC(=O)c4ccccc4)cc3)ncnc2cc1OCCCN1CCOCC1 [GSK301329]              0
22     CCCC(=O)Nc1n[nH]c2ncccc12 [SB-601436]              0
23  CC(=O)c1c(-c2ccncc2)[nH]c(-c2ccncc2)c1C [GW493036]             61
24  Cn1ccc2ncnc(Oc3ccc(NC(=O)Nc4cc(C(C)(C)C)on4)c(Cl)c3)c21              6
25  Cc1ccn2nc(-c3ccc(F)cc3)c(-c3ccncc3)c2c1.Cl [GW457859]             27
26  COc1cccc(OC)c1C(=O)Nc1cccc(-c2nn3ccccc3c2-c2ccnc(Nc3cccc(F)c3)n2)c1 [GSK361065]              0
